// CC50 lookup, one value per entry
PROCEDURE SUMMARY: Cytotoxicity against human MT4 cells assessed as cell viability by MTT assay
Assay type: cell-based

Below, 2 molecules whose answers are already recorded.
MOLECULE: Cc1c(C(C)c2c(F)cccc2F)nc(N(C)C)[nH]c1=O (stereo not drawn)
CC50: > 17000 nM
//
MOLECULE: N#Cc1ccc(Nc2nc(Cl)cc(Cc3c(F)cccc3F)n2)cc1
CC50: > 2800 nM

Okay, now this molecule:
Which CC50 reading was recorded for the molecule CC(c1cc(=O)[nH]c(Nc2ccc(C#N)cc2)n1)c1c(F)cccc1F (stereo not drawn) ?
> 2840 nM

* * *

System: Human immunodeficiency virus type 1 reverse transcriptase (Human immunodeficiency virus 1), Q72547 [K103N]
// ID50 lookup, one value per entry
Write it as a number; the unit nM goes unstated.

Below, 3 compounds whose answers are already recorded.
COMPOUND: N#Cc1ccc(Nc2nc(N)cc(Cc3c(F)cccc3F)n2)cc1
ID50 [nM]: 169
--
COMPOUND: Cc1c(C(C)c2c(F)cccc2F)nc(Nc2ccc(C#N)cc2)[nH]c1=O (configuration not stated)
ID50 [nM]: 125
--
COMPOUND: Cc1c(N)nc(Nc2ccc(C#N)cc2)nc1Cc1c(F)cccc1F
ID50 [nM]: 90

Okay, now this compound:
Which ID50 reading was recorded for the compound Cc1c(C(C)c2c(F)cccc2F)nc(N(C)C)[nH]c1=O (configuration not stated) ?
500

* * *

// ID50 lookup, one value per entry
Test system: Human immunodeficiency virus type 1 reverse transcriptase (Human immunodeficiency virus 1), Q72547 [K103N]
I'd appreciate it if you wrote the number followed by its unit.

MOLECULE: CC(c1cc(N)nc(Nc2ccc(C#N)cc2)n1)c1c(F)cccc1F (stereo not drawn)
ID50: 109 nM
//
MOLECULE: Cc1c(N)nc(Nc2ccc(C#N)cc2)nc1C(C)c1c(F)cccc1F (stereo not drawn)
ID50: 22 nM

Okay, now this molecule:
Which ID50 reading was recorded for the molecule CC(c1ccnc(Nc2ccc(C#N)cc2)n1)c1c(F)cccc1F (stereo not drawn) ?
248 nM
